Reference source: patent US20140163099A1

Quick list: MIC per entry.
# System: Actinomyces viscosus (JCM8352)
# assay-protocol: Growth inhibition activity (MIC, agar) against anaerobic bacteria
# Format: cell-based
# settings: Actinomyces viscosus, 72 h; strain JCM8352; Trypticase Soy Broth agar, 37 degrees C. for 3 days; read-out: MIC (Minimum Inhibitory Concentration)

{"compound": "CNC(=O)C(C)(C(C)C)C(C)C [WS-23, reference compound]", "MIC": "> 1600 µg/mL"}
{"compound": "CC1CCC(C(C)C)C(OCC(O)CO)C1 (stereo not shown) [CA10, 3-menthoxypropane-1,2-diol, reference compound]", "MIC": "< 50 µg/mL"}
{"compound": "CC1CCC(C(C)(C)O)C(O)C1 (stereo not shown) [CA38, p-menthane-3,8-diol, reference compound]", "MIC": "> 1600 µg/mL"}
{"compound": "CC1CCC(C(C)C)C(OCC(C)(O)CO)C1 (stereo not shown)", "MIC": "< 50 µg/mL"}

---

# Tested on: Streptococcus mutans (JCM5175)
# assay-protocol: Growth inhibition activity (MIC, agar) against anaerobic bacteria
# Type: cell-based
# settings: Streptococcus mutans, 72 h; strain JCM5175; Trypticase Soy Broth agar, 37 degrees C. for 3 days; read-out: MIC (Minimum Inhibitory Concentration)
Quick list: MIC per entry.

{"compound": "CC1CCC(C(C)C)C(O)C1 (stereo not drawn) [l-menthol, menthol, reference compound]", "MIC": "> 1600 µg/mL"}
{"compound": "CC1CCC(C(C)(C)O)C(O)C1 (stereo not drawn) [CA38, p-menthane-3,8-diol, reference compound]", "MIC": "> 1600 µg/mL"}
{"compound": "CNC(=O)C(C)(C(C)C)C(C)C [WS-23, reference compound]", "MIC": "> 1600 µg/mL"}

---

# Test system: Propionibacterium acnes (ATCC6919)
# assay-protocol: Growth inhibition activity (MIC, agar) against anaerobic bacteria
# Type: cell-based
# settings: Cutibacterium acnes, ATCC6919, 72 h, strain ATCC6919; Trypticase Soy Broth agar, 37 degrees C. for 3 days; read-out: MIC (Minimum Inhibitory Concentration)

{"molecule": "CC1CCC(C(C)(C)O)C(O)C1 (stereo not shown) [CA38, p-menthane-3,8-diol, reference compound]", "output-unit": "µg/mL", "relation-symbol": ">", "MIC": 1600}
{"molecule": "CNC(=O)C(C)(C(C)C)C(C)C [WS-23, reference compound]", "output-unit": "µg/mL", "relation-symbol": ">", "MIC": 1600}
{"molecule": "CC1CCC(C(C)C)C(OCC(C)(O)CO)C1 (stereo not shown)", "output-unit": "µg/mL", "relation-symbol": "=", "MIC": 400}
{"molecule": "CC1CCC(C(C)C)C(OCCOCCO)C1 (stereo not shown)", "output-unit": "µg/mL", "relation-symbol": "=", "MIC": 800}
{"molecule": "CC1CCC(C(C)C)C(OC(=O)C=O)C1 (stereo not shown) [CA MGH, menthyl glyoxylate]", "output-unit": "µg/mL", "relation-symbol": "=", "MIC": 100}
{"molecule": "CC1CCC(C(C)C)C(OCCO)C1 (stereo not shown)", "output-unit": "µg/mL", "relation-symbol": "=", "MIC": 400}
{"molecule": "CC1CCC(C(C)C)C(O)C1 (stereo not drawn) [l-menthol, menthol, reference compound]", "output-unit": "µg/mL", "relation-symbol": "=", "MIC": 1600}
